- System: Respiratory Syncytial Virus
- test: microbe, parasite or virus in culture
- Type: cell-based
- condition-set: human respiratory syncytial virus, 168 h; Table 1; pEC50 (−log of EC50 in molar units); RSV-infected HeLa cells, MTT read-out seven days after infection; read-out: Activity (converted)
Give measured EC50 for each item. Keep answers brief.
Reply numerically in nM, unit not repeated.

In: So what's the measured EC50 for this one? Cc1cc(C)c2nc(NC3CCN(CCCS(N)(=O)=O)CC3)n(Cc3nc(C)ccc3O)c2c1 [Compound 1]
Out: 2

In: What measured EC50 goes with CCOC(=O)CCN1CCC(Nc2nc3c(C)cc(C)cc3n2Cc2nc(C)ccc2O)CC1 [Compound 10] ?
Out: 79.4

In: What does the data say about its EC50? Entry: Cc1cc(C)c2nc(NC3CCN(CCO)CC3)n(Cc3nc(C)ccc3O)c2c1 [Compound 2]
Out: 3.16

In: // query EC50 value for entry Cc1cc(C)c2nc(NC3CCN(CCCO)CC3)n(Cc3nc(C)ccc3O)c2c1 [Compound 4]
Out: 7.94

###

Give melting point for every item shown.
State the answer as a number, implicitly in °C.

In: Any idea what melting point was measured for Cc1cc(C)c2nc(NC3CCN(CCCO)CC3)n(Cc3nc(C)ccc3O)c2c1 [Compound 4] ?
Out: 209

In: Requested field: melting point. Item: Cc1ccc(O)c(Cn2c(NC3CCN(CCC(=O)O)CC3)nc3c(C)cccc32)n1.Cl [Compound 33]
Out: 245

In: Recorded melting point for Cc1ccc(O)c(Cn2c(NC3CCN(CCN4CCCC4)CC3)nc3c(C)cccc32)n1 [Compound 18] , please?
Out: 225

In: For the molecule shown here, CCOC(=O)CCN1CCC(Nc2nc3c(C)cccc3n2Cc2nc(C)ccc2O)CC1 [Compound 32] , give the reported melting point.
Out: 226

In: I'd like to know its melting point. The molecule in question is COc1ccc(OCC(O)CN2CCC(Nc3nc4c(C)cccc4n3Cc3nc(C)ccc3O)CC2)cc1 (stereo not drawn) [Compound 41]
Out: 227

In: Which melting point is listed for Cc1ccc(O)c(Cn2c(NC3CCN(CCOC(N)=O)CC3)nc3c(C)cccc32)n1 [Compound 37] ?
Out: 222

In: Quick check: melting point of CCOC(=O)CCN1CCC(Nc2nc3c(C)cc(C)cc3n2Cc2nc(C)ccc2O)CC1 [Compound 10] ?
Out: 172

In: Look up melting point for this molecule: Cc1ccc(O)c(Cn2c(NC3CCN(CCC(N)=O)CC3)nc3c(C)cccc32)n1 [Compound 27]
Out: 258

In: So what does the record say about melting point for Cc1cc(C)c2nc(NC3CCN(CCC(N)=O)CC3)n(Cc3nc(C)ccc3O)c2c1 ?
Out: 212

In: Would you mind telling me what melting point value was observed for Cc1ccc(O)c(Cn2c(NC3CCN(CCCS(N)(=O)=O)CC3)nc3c(C)cccc32)n1 [Compound 19] ?
Out: 250

In: Sample Cc1ccc(O)c(Cn2c(NC3CCN(CC(O)C(C)C)CC3)nc3c(C)cccc32)n1 (stereo not drawn) [Compound 35] — what was its melting point?
Out: 230

In: Any idea what melting point was measured for Cc1cc(C)c2nc(NC3CCN(CCCS(N)(=O)=O)CC3)n(Cc3nc(C)ccc3O)c2c1 [Compound 1] ?
Out: 180

In: // melting point lookup, key: Cc1cc(C)c2c(c1)nc(NC1CCN(CCO)CC1)n2Cc1nc(C)ccc1O [Compound 15]
Out: 143

In: Need melting point of Cc1cc(C)c2nc(NC3CCN(CCO)CC3)n(Cc3nc(C)ccc3O)c2c1 [Compound 2] , thanks.
Out: 177

In: What measured melting point goes with Cc1ccc(O)c(Cn2c(NC3CCN(CCOC(=O)Cc4ccccc4)CC3)nc3c(C)cccc32)n1 [Compound 24] ?
Out: 207
